Origin of the recorded values: PubChem BioAssay (NCATS)

ASSAY_INFO: Primary qHTS for inhibitors of nuclear receptor binding SET domain protein 2 (NSD2) in an RCH-ACV wild type WT cells (2C) (AID 1645877); also: nearly all actives have a fitted effect of over 70% in size
TEST_PARAMETERS: RCH-ACV (leukaemia line) NSD2 WT (2C) viability, CellTiter-Glo, 72 h; series mostly up to 44.9 µM
Results filed as inconclusive are left out. The source made the active and inactive calls. Calls follow the shape of the dose curve; as a rule, active = well fitted inhibition curve with a large enough effect; inconclusive = small, poorly fitted or top-dose-only effect; inactive = no such curve, though single readings can be large or run the other way.
Classes used: active, inactive

>  <CHEMICAL_STRUCTURE>
CCCCC[C@H](O)/C=C/[C@H]1[C@H](O)CC(=O)[C@@H]1CCCCCCC(=O)O

>  <GROUP>
active

$$$$
>  <CHEMICAL_STRUCTURE>
O=C(O)CCC(=O)c1ccc(-c2ccccc2)cc1

>  <GROUP>
inactive

$$$$
>  <CHEMICAL_STRUCTURE>
CC(=O)NCCCS(=O)(=O)O

>  <GROUP>
inactive

$$$$
>  <CHEMICAL_STRUCTURE>
CCC[C@@H]1C[C@@H](C(=O)N[C@@H]([C@H]2O[C@H](SC)[C@H](O)[C@@H](O)[C@H]2O)[C@H](C)Cl)N(C)C1

>  <GROUP>
inactive

$$$$
>  <CHEMICAL_STRUCTURE>
CC(=O)Nc1ccc(NC(=S)NC(=O)c2ccc(C(C)(C)C)cc2)cc1

>  <GROUP>
active

$$$$
>  <CHEMICAL_STRUCTURE>
NC[C@H]1O[C@H](O[C@H]2[C@H](O)[C@@H](O[C@H]3O[C@H](CO)[C@@H](O)[C@H](N)[C@H]3O)[C@H](N)C[C@@H]2N)[C@H](N)C[C@@H]1O

>  <GROUP>
inactive

$$$$
>  <CHEMICAL_STRUCTURE>
C=CC[N+]1([C@H]2C[C@H]3[C@@H]4CC[C@H]5C[C@H](O)[C@@H](N6CCOCC6)C[C@]5(C)[C@H]4CC[C@]3(C)[C@H]2OC(C)=O)CCCC1

>  <GROUP>
inactive

$$$$
>  <CHEMICAL_STRUCTURE>
CN(C)CCCSc1ccccc1NC(=O)/C=C/c1ccccc1

>  <GROUP>
inactive

$$$$
